experimentalTarget: Cytochrome P450 3A4 (Homo sapiens) (UniProt P08684)
Sequence (P08684 whole entry, looked up): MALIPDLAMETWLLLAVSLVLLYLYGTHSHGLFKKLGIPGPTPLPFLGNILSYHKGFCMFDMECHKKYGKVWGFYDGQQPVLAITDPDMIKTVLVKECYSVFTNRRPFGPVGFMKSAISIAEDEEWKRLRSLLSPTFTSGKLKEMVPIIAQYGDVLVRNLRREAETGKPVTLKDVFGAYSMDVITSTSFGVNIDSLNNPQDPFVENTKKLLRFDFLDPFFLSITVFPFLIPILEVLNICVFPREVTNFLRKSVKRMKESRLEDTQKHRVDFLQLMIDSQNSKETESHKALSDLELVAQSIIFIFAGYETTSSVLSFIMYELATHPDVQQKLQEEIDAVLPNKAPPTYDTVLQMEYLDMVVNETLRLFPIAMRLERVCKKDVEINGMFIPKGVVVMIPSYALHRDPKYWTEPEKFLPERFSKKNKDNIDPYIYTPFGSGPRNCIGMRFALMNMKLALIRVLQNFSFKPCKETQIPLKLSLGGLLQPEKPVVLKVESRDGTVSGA
experimentNotes: Cytochrome panel assay with activity outcomes
recordedConditions: recombinant CYP, pro-luciferin dealkylation, luminescence, p450-cyp3a4; series mostly up to 57.1 µM
The campaign covered roughly 16,000 compounds. About 5,100 (32%) were called active. Roughly 25% stayed inconclusive and do not appear here. Calls come from the whole dose curve; as a rule, active = well fitted curve in the direction sought with a large enough effect; inconclusive = small, poorly fitted or top-dose-only effect, or effect the other way; inactive = no such curve, though single readings can be large or run the other way. The list shows a part of the results.
Outcomes: YES = active, NO = inactive

INSERT INTO results (molecule, discretelabel) VALUES
  ('CN1CCN(NC(=O)CN2C(=O)/C(=C/c3c(Cl)cccc3Cl)SC2=S)CC1', 'YES'),
  ('COc1ccc(NC(=O)N2CCCC3(CCN(S(C)(=O)=O)CC3)C2)cc1', 'YES'),
  ('CN1CCC(n2[nH]c(-c3ccccc3)c(Cc3ccccc3)c2=O)CC1', 'YES'),
  ('O=c1c2ccccc2nnn1CSc1ccc2c(c1)OCCO2', 'NO'),
  ('Cn1c(N)c(C(=O)CSc2ccc3c(c2)OCCO3)c(=O)n(C)c1=O', 'YES'),
  ('COc1ccc(N2CC(C(=O)Nc3cc(C)on3)CC2=O)cc1 (stereo not given)', 'NO'),
  ('O=C(O)c1cc2ccccc2c(Cc2cc3ccccc3c(C(=O)O)c2O)c1O (tested in a mixture with another compound)', 'NO'),
  ('COc1ccc2c(Cc3c4ccccc4cc4ccccc34)cncc2c1O', 'YES'),
  ('Cc1ccc(S(=O)(=O)N2CCN(Cc3ccccc3C(F)(F)F)CC2)cc1', 'YES'),
  ('COc1ccc(NC(=O)CSc2nc(C)c3c(c2C#N)CCCC3)cc1', 'YES');
